// values below are reported log fold change Tl+ flux
Target: Calcium-activated potassium channel subunit alpha-1 (Homo sapiens) + Leucine-rich repeat-containing protein 26 (Homo sapiens) (UniProt Q12791+Q2I0M4)
Sequence (Q2I0M4 whole entry, looked up, one chain of several): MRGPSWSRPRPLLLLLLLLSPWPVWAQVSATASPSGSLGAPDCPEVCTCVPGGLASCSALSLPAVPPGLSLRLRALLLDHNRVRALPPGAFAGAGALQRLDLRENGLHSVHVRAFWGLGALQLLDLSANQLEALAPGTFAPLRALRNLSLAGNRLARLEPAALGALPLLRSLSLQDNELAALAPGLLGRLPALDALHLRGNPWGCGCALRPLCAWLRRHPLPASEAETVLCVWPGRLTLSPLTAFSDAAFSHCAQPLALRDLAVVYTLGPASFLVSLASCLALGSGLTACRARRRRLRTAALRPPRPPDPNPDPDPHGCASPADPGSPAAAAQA
Assay: modulators of BK channel variants, profiling panel, selectivity assay, cell-based, U2OS BacMam, thallium flux, beta subunits (AID 1259406);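 further: initial slope of Thallos dye fluorescence rise after thallium is added; log ratio against the mean of 0.3% DMSO vehicle wells on the same plate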
Conditions: F380Y/Slo1WT/gamma1, at 30 µM
Reply briefly: the number, and no unit.

Look over these answered cases.
[
  {
    "COMPOUND_SMILES": "Cc1nn(C)c2ncc(C(N)=O)c(Oc3ccc(Cl)cc3)c12",
    "log fold change Tl+ flux": 0.0214
  },
  {
    "COMPOUND_SMILES": "Cn1c(SCc2ccc(C(F)(F)F)cc2)nnc1C(F)(F)F",
    "log fold change Tl+ flux": -0.00125
  }
]

So what's the measured log fold change Tl+ flux for this one? O=S(=O)(Nc1ccccc1SCc1ccc2nonc2c1)c1cccs1
-0.142

Try the compound CO[C@H]1C=CO[C@@]2(C)Oc3c(C)c(O)c4c(O)c(c(C=NN5CCN(C6CCCC6)CC5)c(O)c4c3C2=O)NC(=O)C(C)=CC=C[C@H](C)[C@H](O)[C@@H](C)[C@@H](O)[C@@H](C)[C@H](OC(C)=O)[C@@H]1C
0.0556

Try the compound Cc1nnc(-c2ccccn2)[nH]c1=O
0.0158

Try the compound Clc1ccc(-n2nnnc2-c2cccnc2)c(Cl)c1
0.00547

Try the compound S=c1sc2c(s1)SCC1(CS2)OCCO1
0.000395

###

// values below are reported log fold change Tl+ flux
Molecular target: Calcium-activated potassium channel subunit alpha-1 (Homo sapiens) + Leucine-rich repeat-containing protein 26 (Homo sapiens) (UniProt Q12791+Q2I0M4)
Assay: modulators of BK channel variants, profiling panel, selectivity assay, cell-based, U2OS BacMam, thallium flux, beta subunits (AID 1259406);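 further: initial slope of Thallos dye fluorescence rise after thallium is added; log ratio against the mean of 0.3% DMSO vehicle wells on the same plate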
Details: F380Y/Slo1WT/gamma1, at 30 µM
Reply briefly: the number, and no unit.

Look over these answered cases.
[
  {
    "MOLECULE": "O=C(CC1SC(=NC2CC3C=CC2C3)NC1=O)Nc1ccccc1Cl (stereo not drawn)",
    "VALUE_KIND": "log fold change Tl+ flux",
    "RESULT_NUMBER": -0.0156
  },
  {
    "MOLECULE": "Cc1ncc(CSc2nc(C(C)(C)C)cs2)c(CO)c1O",
    "VALUE_KIND": "log fold change Tl+ flux",
    "RESULT_NUMBER": -0.0352
  },
  {
    "MOLECULE": "CN(Cc1nnc(-c2ccc3ccccc3c2)o1)c1nnc(C(F)(F)F)s1",
    "VALUE_KIND": "log fold change Tl+ flux",
    "RESULT_NUMBER": -0.0041
  },
  {
    "MOLECULE": "O=c1ncc(F)c[nH]1",
    "VALUE_KIND": "log fold change Tl+ flux",
    "RESULT_NUMBER": 0.0169
  },
  {
    "MOLECULE": "NC(Cc1ccc(OCc2ncc(C(F)(F)F)cc2Cl)cc1)=NOC(=O)c1ccccc1",
    "VALUE_KIND": "log fold change Tl+ flux",
    "RESULT_NUMBER": -0.00749
  }
]

Here's the next entry for you.
So what's the measured log fold change Tl+ flux for this one? CC(=O)OCC(=O)C12OC3(CCCC3)OC1CC1C3CCC4=CC(=O)C=CC4(C)C3(F)C(O)CC12C (stereo not drawn)
0.0537

###

Experiment: differential killing of epithelial or mesenchymal cells, primary screen, imaging, PC-3E GFP, TEM4-18 mCherry, co-culture (AID 1345086);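 further: cells exposed to compound for 72 h before imaging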
Conditions: imaging cell counts, measured here: epithelial PC-3E GFP cell survival, at 1 µM
VALUE_KIND: normalised cell number
Reply briefly: the number, and no unit.

[
  {
    "MOLECULE": "O=C(NCC1O[C@@H](OC2C(NC(=O)OCc3ccccc3)C[C@@H](NC(=O)OCc3ccccc3)[C@H](OC3OC(COS(=O)(=O)O)[C@@H](OS(=O)(=O)O)[C@H](NC(=O)OCc4ccccc4)[C@H]3OS(=O)(=O)O)[C@H]2OS(=O)(=O)O)[C@H](OS(=O)(=O)O)[C@@H](OS(=O)(=O)O)C1OS(=O)(=O)O)OCc1ccccc1 (some centres undefined)",
    "normalised cell number": 0.88
  }
]

So what's the measured normalised cell number for this one? CC(=O)OCC1O[C@H]2OC(=O)NC2[C@@H](OC(C)=O)C1OC(C)=O (some centres undefined)
1.33

###

Assay: growth inhibition of RCMB18 medulloblastoma cells, cell-based, cisplatin and BGB IC40 combos (AID 1671462);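 further: cells exposed to compound for four days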
Settings: measured here: BGB IC40 combination, at 0.05 µM, stronger effect = higher value
VALUE_KIND: inhibition (%)
Record the value in %, omitting the unit from your answer.

Look over these answered cases.
[
  {
    "MOLECULE": "O=c1ncccn1[C@@H]1O[C@H](CO)[C@@H](O)[C@H]1O",
    "RESULT_NUMBER": 3.99
  },
  {
    "MOLECULE": "O=c1[nH]c(-c2ccc(C(F)(F)F)cc2)nc2c1CSCC2",
    "RESULT_NUMBER": -24.5
  },
  {
    "MOLECULE": "Cc1c(-c2cnccn2)ssc1=S",
    "RESULT_NUMBER": -10.6
  },
  {
    "MOLECULE": "CC(C)N=c1cc2n(-c3ccc(Cl)cc3)c3ccccc3nc-2cc1Nc1ccc(Cl)cc1",
    "RESULT_NUMBER": -2.04
  },
  {
    "MOLECULE": "CCc1c2c(nc3ccc(O)cc13)-c1cc3c(c(=O)n1C2)COC(=O)[C@]3(O)CC",
    "RESULT_NUMBER": -24.6
  }
]

So what's the measured inhibition for this one? NC(=O)c1ncn(C2OC(CO)C(O)C2O)n1 (stereo unspecified)
7.76

###

Experiment: differential killing of epithelial or mesenchymal cells, primary screen, imaging, PC-3E GFP, TEM4-18 mCherry, co-culture (AID 1345086);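 further: cells exposed to compound for 72 h before imaging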
Settings: imaging cell counts, measured here: epithelial PC-3E GFP cell survival, at 1 µM
VALUE_KIND: normalised cell number
Reply briefly: the number, and no unit.

[
  {
    "COMPOUND": "CN(C)CC(c1ccc(O)cc1)C1(O)CCCCC1 (stereo not drawn)",
    "RESULT_NUMBER": 0.79
  },
  {
    "COMPOUND": "C[C@@H]1[C@H](O)[C@@H](C)/C=C/C=C/C=C/C=C/C=C/C=C/C=C/[C@H](OC2O[C@H](C)[C@@H](O)[C@H](N)[C@@H]2O)C[C@@H]2O[C@](O)(C[C@@H](O)C[C@@H](O)[C@H](O)CC[C@@H](O)C[C@@H](O)CC(=O)O[C@H]1C)C[C@H](O)[C@H]2C(=O)O (stereo partly drawn)",
    "RESULT_NUMBER": 1.26
  }
]

So what's the measured normalised cell number for this one? CC(=O)O[C@H]1CCC2(C)C3=C(CCC2C1(C)C)[C@@]1(C)CC[C@@H](C(C)CCC=C(C)C)[C@]1(C)CC3 (stereo partly drawn)
0.67

Try the compound CCCC[C@@H](CC)COC(=O)C(C#N)=C(c1ccccc1)c1ccccc1
1.19

Try the compound CC(C)CCCC(C)C1CCC2C3CC(=O)[C@H]4C[C@@H](O)CC[C@]4(C)C3CC[C@]12C (stereo partly drawn)
1.04

Try the compound COC(=O)C[C@H]1C2(C)CC34OC5(C)O[C@]6(C7/C(=C(/O)C(C)C)C(=O)O[C@@H](c8ccoc8)[C@]7(C)C(OC(C)=O)[C@@H](OC(C)=O)[C@]6(O5)C13C)[C@H](OC(C)=O)[C@@]4(O)C2OC(=O)C(C)C (stereo partly drawn)
1.08

Try the compound COc1cc2c(cc1OC)C1C(=O)c3c(O)cc4c(c3OC1CO2)C=CC(C)(C)O4 (stereo not drawn)
0.94

Try the compound CC(=O)NC1[C@@H](O)C2OC(c3ccccc3)OCC2O[C@H]1Sc1ccccc1 (stereo partly drawn)
1.06

###

Experiment: differential killing of epithelial or mesenchymal cells, primary screen, imaging, PC-3E GFP, TEM4-18 mCherry, co-culture (AID 1345086);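 further: cells exposed to compound for 72 h before imaging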
Conditions: imaging cell counts, measured here: mesenchymal TEM4-18 mCherry cell survival, at 1 µM
Field: label. Allowed values: Fulfilled (normalised cell number < 1) or Not fulfilled (normalised cell number >= 1).

Please review the entries below; each comes with its answer.
[
  {
    "COMPOUND": "O=c1cc(-c2ccccc2)oc2cc(O)ccc12",
    "CLASS_LABEL": "Fulfilled"
  },
  {
    "COMPOUND": "CC(C)[C@@H]1CCC(CO)=C[C@@H]1/C=C(\\CO)C(=O)O",
    "CLASS_LABEL": "Not fulfilled"
  },
  {
    "COMPOUND": "COc1cc(/C=C/C(=O)/C=C(O)/C=C/c2ccc(O)c(OC)c2)ccc1O",
    "CLASS_LABEL": "Not fulfilled"
  },
  {
    "COMPOUND": "O=C(NCC1O[C@@H](OC2C(NC(=O)c3ccccc3)C[C@@H](NC(=O)c3ccccc3)[C@H](OS(=O)(=O)O)[C@H]2OC2OC(COS(=O)(=O)O)C(OC3OC(CNC(=O)c4ccccc4)[C@@H](OS(=O)(=O)O)[C@H](OS(=O)(=O)O)[C@H]3NC(=O)c3ccccc3)C2OS(=O)(=O)O)[C@H](NC(=O)c2ccccc2)[C@@H](OS(=O)(=O)O)C1OS(=O)(=O)O)c1ccccc1 (stereo partly drawn)",
    "CLASS_LABEL": "Fulfilled"
  },
  {
    "COMPOUND": "O=C1CN2Cc3c(ccc(Cl)c3Cl)N=C2N1",
    "CLASS_LABEL": "Fulfilled"
  }
]

Say whether its normalised cell number is strictly beneath 1. Entry: O=C(O)CC1OCc2c(O)cccc21 (stereo not drawn)
Fulfilled
